# System: Plasma
# protocol-text: Stability in human plasma assessed as residual compound after 6 hrs by HPLC method
# Format: ADME, cell-free
readout-kind: Stability (%)
Numbers only, in %.

These recorded examples may help you get a feel for the data.
{"structure-notation": "CCC(CC)C(=O)O[C@H]1[C@@H](F)[C@H](n2cnc3c(N)ncnc32)O[C@@H]1CNS(=O)(=O)NC(=O)c1ccccc1O.CCN(CC)CC", "readout-kind": "Stability", "readout-units": "%", "recorded-value": 94}
{"structure-notation": "CC(=O)O[C@H]1[C@@H](F)[C@H](n2cnc3c(N)ncnc32)O[C@@H]1CNS(=O)(=O)NC(=O)c1ccccc1O.CCN(CC)CC", "readout-kind": "Stability", "readout-units": "%", "recorded-value": 61}
{"structure-notation": "CCCC(=O)O[C@H]1[C@@H](F)[C@H](n2cnc3c(N)ncnc32)O[C@@H]1CNS(=O)(=O)NC(=O)c1ccccc1O.CCN(CC)CC", "readout-kind": "Stability", "readout-units": "%", "recorded-value": 64}
{"structure-notation": "CCCCC(=O)O[C@H]1[C@@H](F)[C@H](n2cnc3c(N)ncnc32)O[C@@H]1CNS(=O)(=O)NC(=O)c1ccccc1O.CCN(CC)CC", "readout-kind": "Stability", "readout-units": "%", "recorded-value": 66}
{"structure-notation": "CCC(=O)O[C@H]1[C@@H](F)[C@H](n2cnc3c(N)ncnc32)O[C@@H]1CNS(=O)(=O)NC(=O)c1ccccc1O.CCN(CC)CC", "readout-kind": "Stability", "readout-units": "%", "recorded-value": 70}

# evaluate next
Q: Return Stability for the following molecule: `CCCCCCCCCCCC(=O)O[C@H]1[C@@H](F)[C@H](n2cnc3c(N)ncnc32)O[C@@H]1CNS(=O)(=O)NC(=O)c1ccccc1O.CCN(CC)CC`
Ans: 98

###

# protocol-text: Retention time of compound by RP-HPLC method
# Assay type: physicochemical
Label 1.0 when Retention_time >= 10 min; otherwise 0.0.

{"structure-notation": "CC(=O)O[C@H]1[C@@H](F)[C@H](n2cnc3c(N)ncnc32)O[C@@H]1CNS(=O)(=O)NC(=O)c1ccccc1O.CCN(CC)CC", "label": 0.0}

Q: Textbook exercise: given the entry `Nc1ncnc2c1ncn2[C@@H]1O[C@H](COS(=O)(=O)NC(=O)c2ccccc2O)[C@@H](O)[C@H]1O` , state whether its Retention_time is greater than or equal to 10 min.
Ans: 0.0

Q: Hi team, for `Nc1ncnc2c1ncn2[C@@H]1O[C@H](CNS(=O)(=O)NC(=O)c2ccccc2O)[C@@H](O)[C@H]1F` , is the recorded Retention_time at or above 10 min?
Ans: 0.0

Q: Does the molecule `CCCCC(=O)O[C@H]1[C@@H](F)[C@H](n2cnc3c(N)ncnc32)O[C@@H]1CNS(=O)(=O)NC(=O)c1ccccc1O.CCN(CC)CC` have recorded Retention_time that is 10 min or more?
Ans: 1.0

Q: Tell me whether Retention_time is at least 10 min here: `CCCCCCCC(=O)O[C@H]1[C@@H](F)[C@H](n2cnc3c(N)ncnc32)O[C@@H]1CNS(=O)(=O)NC(=O)c1ccccc1O.CCN(CC)CC`
Ans: 1.0

Q: Please check the record `CCCC(=O)O[C@H]1[C@@H](F)[C@H](n2cnc3c(N)ncnc32)O[C@@H]1CNS(=O)(=O)NC(=O)c1ccccc1O.CCN(CC)CC` and state if its Retention_time is at or above 10 min.
Ans: 1.0

Q: Determine whether measured Retention_time meets or exceeds 10 min for `CC(C)C(=O)O[C@H]1[C@@H](F)[C@H](n2cnc3c(N)ncnc32)O[C@@H]1CNS(=O)(=O)NC(=O)c1ccccc1O.CCN(CC)CC`
Ans: 1.0

###

# protocol-text: Permeability from apical to basolateral side in human Caco2 cells assessed as prodrug remaining in apical side for 2 hrs by HPLC method
# Format: ADME, cell-based
# recorded-conditions: caco-2, 2 h
# if measured permeability < 90%: satisfied  # else: not satisfied

Reference set, count: 3
{"structure-notation": "CC(=O)O[C@H]1[C@@H](F)[C@H](n2cnc3c(N)ncnc32)O[C@@H]1CNS(=O)(=O)NC(=O)c1ccccc1O.CCN(CC)CC", "label": "not satisfied"}
{"structure-notation": "CCC(CC)C(=O)O[C@H]1[C@@H](F)[C@H](n2cnc3c(N)ncnc32)O[C@@H]1CNS(=O)(=O)NC(=O)c1ccccc1O.CCN(CC)CC", "label": "not satisfied"}
{"structure-notation": "CCCCCCCC(=O)O[C@H]1[C@@H](F)[C@H](n2cnc3c(N)ncnc32)O[C@@H]1CNS(=O)(=O)NC(=O)c1ccccc1O.CCN(CC)CC", "label": "satisfied"}

Consider the additional compound presented here.
Q: Take the compound `CCCC(=O)O[C@H]1[C@@H](F)[C@H](n2cnc3c(N)ncnc32)O[C@@H]1CNS(=O)(=O)NC(=O)c1ccccc1O.CCN(CC)CC` and say whether its permeability is less than 90%.
Ans: satisfied

###

# protocol-text: Apparent permeability from basolateral to apical side in human Caco2 cells at 100 uM incubated for 2 hrs by HPLC method
# Format: ADME, cell-based
# recorded-conditions: Caco-2
So I've got a bunch of compounds here, and I need their Papp B→A at 2 h, 100 µM values.

{"structure-notation": "CCCC(=O)O[C@H]1[C@@H](F)[C@H](n2cnc3c(N)ncnc32)O[C@@H]1CNS(=O)(=O)NC(=O)c1ccccc1O.CCN(CC)CC", "recorded-value": "3.5 ×10⁻⁶ cm/s"}

Hello, I would appreciate it if you could give Papp B→A at 2 h, 100 µM for each entry below.
1. CC(=O)O[C@H]1[C@@H](F)[C@H](n2cnc3c(N)ncnc32)O[C@@H]1CNS(=O)(=O)NC(=O)c1ccccc1O.CCN(CC)CC
2. CCC(CC)C(=O)O[C@H]1[C@@H](F)[C@H](n2cnc3c(N)ncnc32)O[C@@H]1CNS(=O)(=O)NC(=O)c1ccccc1O.CCN(CC)CC
3. CCCCCCCC(=O)O[C@H]1[C@@H](F)[C@H](n2cnc3c(N)ncnc32)O[C@@H]1CNS(=O)(=O)NC(=O)c1ccccc1O.CCN(CC)CC
4. CC(C)C(=O)O[C@H]1[C@@H](F)[C@H](n2cnc3c(N)ncnc32)O[C@@H]1CNS(=O)(=O)NC(=O)c1ccccc1O.CCN(CC)CC

Ans:
["1.6 ×10⁻⁶ cm/s", "3.8 ×10⁻⁶ cm/s", "6.9 ×10⁻⁶ cm/s", "3.4 ×10⁻⁶ cm/s"]
